test: Single dose tolerability and pharmacokinetic trials, Japan and Ex-Japan; type: in vivo, Japanese (Japan) and European (Ex-Japan) subjects; conditions: human, blood, po, single dose, least squares mean; Ex-Japan; read-out: CL/F (converted)
OBSERVED PROPERTY: CL/F (mL/min)
Respond with the bare value in mL/min.

Query: For the compound shown here, `COC(=O)[C@@H]1CC2=CC(=O)CC[C@]2(C)[C@@]23O[C@@H]2C[C@@]2(C)[C@@H](CC[C@@]24CCC(=O)O4)[C@H]13` , give the reported CL/F.
Result: 228

====

test: Pharmacokinetics and tolerability in subjects with moderate hepatic impairment vs normal healthy subjects; format: in vivo, human subjects; conditions: human, in vivo, 400 mg, Multiple Dose, Moderate; read-out: CL/F, Mean (converted)
OBSERVED PROPERTY: CL/F
# include the unit after the value

Query: Reported CL/F, molecule `COC(=O)[C@@H]1CC2=CC(=O)CC[C@]2(C)[C@@]23O[C@@H]2C[C@@]2(C)[C@@H](CC[C@@]24CCC(=O)O4)[C@H]13` : ____
Result: 149 mL/min

====

experiment: Pharmacokinetics and tolerability in subjects with moderate hepatic impairment vs normal healthy subjects; type: in vivo, human subjects; conditions: human, in vivo, 400 mg, Multiple Dose, Moderate Impairment; read-out: AUC (0-24), Least Squares Mean
OBSERVED PROPERTY: AUC tau at 24 h (ng·h/mL)
Respond with the bare value in ng·h/mL.

Query: Param item = `COC(=O)[C@@H]1CC2=CC(=O)CC[C@]2(C)[C@@]23O[C@@H]2C[C@@]2(C)[C@@H](CC[C@@]24CCC(=O)O4)[C@H]13` ; retrieve measured AUC tau at 24 h.
Result: 43800

====

assay: Pharmacokinetics and absorption after IV and oral [14C]eplerenone in the rat; assay type: in vivo; conditions: rat, plasma, iv, 15 mg/kg, plasma clearance (CL) of total eplerenone, IV 15 mg/kg, female rat
OBSERVED PROPERTY: clearance (mL/min/kg)
Write the number in mL/min/kg without appending the unit.

Query: Please look up its clearance: `COC(=O)[C@@H]1CC2=CC(=O)CC[C@]2(C)[C@@]23O[C@@H]2C[C@@]2(C)[C@@H](CC[C@@]24CCC(=O)O4)[C@H]13`
Result: 11.6

====

experiment: Pharmacokinetics and tolerability in subjects with moderate hepatic impairment vs normal healthy subjects; type: in vivo, human subjects; conditions: human, in vivo, 400 mg, Single Dose, Moderate Impairment; read-out: CL/.F, Least Squares Mean (converted)
OBSERVED PROPERTY: CL/F (mL/min)
Answer format: numeric, mL/min implied, no suffix.

Query: Report CL/F for COC(=O)[C@@H]1CC2=CC(=O)CC[C@]2(C)[C@@]23O[C@@H]2C[C@@]2(C)[C@@H](CC[C@@]24CCC(=O)O4)[C@H]13 [Eplerenone] please.
Result: 153

====

test: Pharmacokinetics and tolerability in subjects with moderate hepatic impairment vs normal healthy subjects; assay type: in vivo, human subjects; details: human, in vivo, 400 mg, Single Dose, Moderate Impairment; read-out: AUC (0-∞), Least Squares Mean
OBSERVED PROPERTY: AUC(0-inf) (ng·h/mL)
Report the figure in ng·h/mL without appending any unit label.

Query: Please give the measured AUC(0-inf) for this compound: `COC(=O)[C@@H]1CC2=CC(=O)CC[C@]2(C)[C@@]23O[C@@H]2C[C@@]2(C)[C@@H](CC[C@@]24CCC(=O)O4)[C@H]13`
Result: 43600
